# Test system: KM12
# TEST NAME: NCI tumour cell line growth inhibition, 48 h
The source made the active and inactive calls. Rule as the data show it: active = GI50 up to about 1.1 µM and inactive = higher.
READOUT KIND: GI50

{"columns": ["COMPOUND", "READOUT KIND", "MEASURED RESULT"],
 "data": [
  ["Cc1ccc(C(=O)Nc2ccc(CP(=O)(O)O)cc2)cc1NC(=O)Nc1cc(C(=O)Nc2ccc(CP(=O)(O)O)cc2)ccc1C", "GI50", "> 100 µM (inactive)"],
  ["CN(C)C(=Nc1nc(N(C)C)s[s+]1)N(C)C", "GI50", "> 100 µM (inactive)"],
  ["CC1(C)OC(=O)C(=Cc2ccc([N+](=O)[O-])s2)C(=O)O1", "GI50", "14.7 µM (inactive)"],
  ["Cc1cn(C2CC(N=[N+]=[N-])C(CO)O2)c(=O)n(CCCCO)c1=O (stereo not given)", "GI50", "> 100 µM (inactive)"],
  ["C[C@]12CC(c3ccccc3O1)C(C(=O)Nc1nc(C34CC5CC(CC(C5)C3)C4)cs1)C(=O)N2 (stereo not given in full)", "GI50", "> 100 µM (inactive)"],
  ["O=C(O)C(Cc1cc(I)c(O)c(I)c1)C1CCCCC1 (stereo not given)", "GI50", "30.4 µM (inactive)"],
  ["C#CCN(N=O)C(=O)NCCCC(NC(C)=O)C(=O)NCc1ccccc1 (stereo not given)", "GI50", "> 100 µM (inactive)"],
  ["CC(C)CCNC(=O)c1ccc(CNC(=O)/C=C/c2csc(-c3ccccc3)n2)cc1", "GI50", "> 100 µM (inactive)"],
  ["FC(F)(F)c1cnc(N/N=C(/c2ccccc2)c2ccccn2)c(Cl)c1", "GI50", "5.14 µM (inactive)"],
  ["Oc1ccccc1/C=N/c1ccc(Oc2ccc(Cl)cc2)c(Cl)c1", "GI50", "23.8 µM (inactive)"]
]}

====

# Test system: LOX IMVI
# TEST NAME: NCI tumour cell line growth inhibition, 48 h
The source made the active and inactive calls. Cut-off read from the data, not from the text of the source: active = GI50 up to about 1.1 µM and inactive = higher.
Outcomes: active, inactive

{"columns": ["COMPOUND", "DISCRETE LABEL"],
 "data": [
  ["O=C1OC(c2ccc([N+](=O)[O-])cc2)=N/C1=C\\c1ccc(Cl)cc1", "inactive"],
  ["COc1ccc2c(c1)CC[C@@H]1C2CC[C@]2(C)C(=C=CP(=O)(O)O)CCC12 (stereo not given in full)", "inactive"],
  ["C=CC[P@@]1(=O)O[C@H](c2ccccc2)C(C)N1C(C)C (stereo not given in full)", "inactive"],
  ["CN1CCN(C(=O)CCNC(=O)Cc2ccc(C(=O)c3ccccc3)cc2)CC1", "inactive"],
  ["C=C1C(=O)O[C@@H]2C[C@@]3(C)CC(=O)C=C(C)[C@@H]3C[C@H]12", "inactive"],
  ["Cc1ccc2c(O)cc(-c3ccc(F)cc3)nc2n1", "inactive"],
  ["CN1CCC(C(=O)NNc2ccccc2)CC1", "active"],
  ["Cc1c(C(C)C)cc(OCCO)cc1C(C)C", "inactive"],
  ["CC1(C)OC[C@@]2([C@@H]3CC[C@@H](C3)C2(C)C)N1O", "inactive"],
  ["CC(=O)c1c(C)cc2cccc(OC3OC(CO)C(O)C(O)C3O)c2c1O.CC1OC(O)C(O)C(O)C1O (stereo not given)", "inactive"]
]}

====

# Tested on: OVCAR-4
# TEST NAME: NCI tumour cell line growth inhibition, 48 h
The source made the active and inactive calls. No stated cut-off is given here; in the data, active = GI50 up to about 1.1 µM and inactive = higher.
Reported GI50 is given for each of the following compounds.
READOUT KIND: GI50

{"columns": ["COMPOUND", "MEASURED RESULT"],
 "data": [
  ["COC1(C)OC[C@@]2(C)OC(C)C1(C)C2O[Si](C(C)C)(C(C)C)C(C)C (stereo not given in full)", "30.3 µM (inactive)"],
  ["Nc1cc2c3c(cccc3c1)C(=O)N(c1ccc(OCCN3CCCCC3)cc1)C2=O", "17.1 µM (inactive)"],
  ["C=C1[C@H]2O[C@H]2[C@@H](OC(C)=O)[C@@]2(C)[C@@H](OC(C)=O)C[C@@H](OC(=O)CCC)[C@@](C)(O)[C@@H]2[C@@H](OC(C)=O)[C@]2(O)[C@@H](C)C(=O)O[C@H]2[C@H]1Cl", "> 100 µM (inactive)"],
  ["O=S(=O)(O)c1ccc(/N=N/c2nc(C(F)(F)F)c(C(F)(F)F)[nH]2)cc1", "21.6 µM (inactive)"],
  ["CN1CCC(C(=O)NNc2ccccc2)CC1", "13.3 µM (inactive)"],
  ["COC(=O)CCC(=O)NC1c2cccc3cccc(c23)Cn2c(=O)n(C)c(=O)n21 (stereo not given)", "> 100 µM (inactive)"],
  ["CC1(C)C(=O)OC(n2cc(F)c(=O)[nH]c2=O)C1=O (stereo not given)", "> 100 µM (inactive)"],
  ["COC(=O)C1=C(O)C(C(=O)OC)[C@]2(O)[C@H](C(=O)OC)[C@H]1C[C@@H](c1ccc(C(F)(F)F)cc1)[C@H]2C(=O)OC (stereo not given in full)", "5.55 µM (inactive)"],
  ["Cn1c(=O)c(C(=O)Nc2nc(C34CC5CC(CC(C5)C3)C4)cs2)c(O)c2ccccc21", "> 100 µM (inactive)"],
  ["Nc1nc(Cl)cc(NC23CC4CC(CC(C4)C2)C3)n1", "> 100 µM (inactive)"],
  ["Nc1nc(Cl)cc(NCCCNc2cc(Cl)nc(N)n2)n1", "> 100 µM (inactive)"],
  ["COc1ccc(C(=O)c2nc3ccccc3nc2N2CCN(c3ccccc3)CC2)cc1OC", "> 100 µM (inactive)"],
  ["CC1CC2OC(=O)CC2C[C@@H]1O[Si](C)(C)C(C)(C)C (stereo not given in full)", "61 µM (inactive)"],
  ["CCOC(=O)c1c(C)c(C)n2c1NC(=O)C2", "> 100 µM (inactive)"],
  ["Cc1c(C(C)C)cc(OCCO)cc1C(C)C", "33.5 µM (inactive)"],
  ["CC1(C)CC(=O)c2c(-c3ccc(Cl)cc3)c(C#N)c(=S)n(C3OC(CO)C(O)C(O)C3O)c2C1 (stereo not given)", "49.2 µM (inactive)"],
  ["Cn1nc2ccccc2cc1=O", "> 100 µM (inactive)"],
  ["CC(NC1=CC(=O)c2ncccc2C1=O)C(O)c1ccccc1 (stereo not given)", "6.78 µM (inactive)"],
  ["COP(=O)(CP(=O)(OC)OCCC(C)CCC=C(C)C)OC (stereo not given)", "> 100 µM (inactive)"],
  ["Clc1cc(OC23CC4CC(CC(C4)C2)C3)nc(Cl)n1", "40.9 µM (inactive)"],
  ["COC(=O)C(=O)C(C(=O)C(=O)Nc1cccc([N+](=O)[O-])c1)c1nc2ccc(Cl)cc2nc1O (stereo not given)", "> 100 µM (inactive)"],
  ["CCOC(=O)c1cc2ncccc2c2ccccc12", "> 100 µM (inactive)"],
  ["CCOC(=O)CP(=S)(S)c1ccccc1 (stereo not given)", "> 100 µM (inactive)"],
  ["Cc1[nH]c(=O)nc(NCCNCCO)c1C(=O)Nc1c2ccccc2nc2ccccc12", "> 100 µM (inactive)"],
  ["Cc1cc2c(=O)c3ccccc3[nH]c2c(C(N)=O)c1C", "> 100 µM (inactive)"],
  ["CC(=O)O[C@H]1C(=O)[C@@]2(C)[C@H]([C@H](OC(=O)c3ccncc3)[C@]3(O)C[C@H](OC(=O)[C@H](O)[C@@H](NC(=O)c4ccccc4)c4ccccc4)C(C)=C1C3(C)C)[C@]1(OC(C)=O)CO[C@@H]1C[C@@H]2O", "> 25 µM (inactive)"],
  ["CN(CCCNC(=O)c1c2ccc3ccccc3c2nn1C)CCCNC(=O)c1c2ccc3ccccc3c2nn1C", "11.7 µM (inactive)"],
  ["Cc1ccc(-c2c(C#N)c(N)[nH]c(=S)c2C#N)cc1", "54.7 µM (inactive)"],
  ["CCOC(=O)NC(C(C(=O)OCC)C(=O)OCC)(C(F)(F)F)C(F)(F)F", "> 100 µM (inactive)"],
  ["N#CCCSC(=S)C1CCCC1=N (stereo not given)", "> 100 µM (inactive)"],
  ["Nc1nccc(Nc2ccc(S(N)(=O)=O)cc2)n1", "> 100 µM (inactive)"],
  ["Cc1ccc(/C=C/C(=N/NC(=O)N/N=C(/C=C/c2ccc(C)cc2)C(C)(C)CN2CCCCC2)C(C)(C)CN2CCCCC2)cc1", "2.07 µM (inactive)"],
  ["C=CC[P@@]1(=O)O[C@H](c2ccccc2)C(C)N1C(C)C (stereo not given in full)", "> 100 µM (inactive)"],
  ["COc1ccc(/C=C/C(=O)/C=C/c2ccc(OC)cc2OC)c(OC)c1", "12.3 µM (inactive)"],
  ["N#C/C(=C1\\SC(/N=N/c2ccc(Cl)cc2)C(=O)N1c1ccccc1)c1nc2ccccc2[nH]1 (stereo not given)", "23 µM (inactive)"],
  ["CCOc1ccc(NC(=O)CC2Sc3ccccc3NC2=O)cc1 (stereo not given)", "18.4 µM (inactive)"],
  ["CC(=O)O[C@H]1CC[C@H]2[C@@H]3CCC4=C(C(=O)C=CC4(C)OC(C)=O)[C@H]3CC[C@]12C (stereo not given in full)", "> 100 µM (inactive)"],
  ["COc1ccc(-c2nnc3n(C)c4ccccc4n3c2=O)cc1", "> 100 µM (inactive)"],
  ["O=c1[nH]c(Nc2nc3ccccc3[nH]2)nc(O)c1Cc1ccccc1", "> 100 µM (inactive)"],
  ["O=C(O)c1nnsc1-c1ccc(-c2snnc2C(=O)O)cc1", "29.6 µM (inactive)"]
]}
